target: LZK (Homo sapiens, UniProt O43283); construct: 10 nM LZK, catalytic domain, Carna Biosiences in assay buffer; purchased Carna Biosciences ('Carna Biosiences' [sic]); assay: LZK biochemical assay (TR-FRET, MKK7 phosphorylation)
Sequence (O43283 168-409 limits assumed): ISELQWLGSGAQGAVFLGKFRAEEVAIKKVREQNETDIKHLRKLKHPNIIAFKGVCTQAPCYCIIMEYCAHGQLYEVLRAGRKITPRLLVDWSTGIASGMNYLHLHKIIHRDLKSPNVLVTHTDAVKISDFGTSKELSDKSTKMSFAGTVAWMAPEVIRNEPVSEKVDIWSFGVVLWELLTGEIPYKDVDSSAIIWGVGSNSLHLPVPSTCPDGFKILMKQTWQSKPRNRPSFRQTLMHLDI
property: IC50 (nM)
Value expressed in nM; do not type the unit.

Below: 3 molecules and their reported IC50.
Nc1nc2cc(-c3cnn(C(c4ccc(C(F)F)nc4)C4CCOCC4)c3)cc(-c3ccc(C(F)(F)F)nc3)n2n1 (single isomer, unassigned) [II-77]
61
CC(C)C(c1ccc(C(F)(F)F)nc1)n1cc(-c2cc(-c3ccnc(C(F)(F)F)c3)n3nc(N)nc3c2)cn1 (racemic) [II-28]
27
Nc1nc2c(-c3cnn(CC(F)(F)F)c3)cc(-c3cnn(C(c4ccc(C(F)(F)F)nc4)C4CCOCC4)c3)cn2n1 (single isomer, unassigned) [II-118]
2.6

Lab note: need IC50 for CCC(c1ccc(C(F)(F)F)cc1)n1cc(-c2cc(-c3cnn(CC(F)(F)F)c3)n3nc(N)nc3c2)cn1 (single isomer, unassigned) [II-130] on LZK (Homo sapiens, UniProt O43283), anyone have it?
670

Lab note: need IC50 for CCC(c1ccc(OC(F)(F)F)nc1)n1cc(-c2cc(-c3ccc(=O)n(CC(F)(F)F)c3)c3nc(N)nn3c2)cn1 (single isomer, unassigned) [II-165] on LZK (Homo sapiens, UniProt O43283), anyone have it?
57

Lab note: need IC50 for CCC(c1ccc(C(F)(F)F)nc1)n1cc(-c2cc(-c3ccn(C)c(=O)c3)c3nc(N)nn3c2)cn1 (stereo not drawn) [II-169] on LZK (Homo sapiens, UniProt O43283), anyone have it?
60
